pIC50: −log10 of the molar value.
endpointName: pIC50

# CC(=O)OC[C@@]1(C)[C@@H]2C[C@H](OC(C)=O)[C@@]3(C)Oc4cc(-c5cccnc5)oc(=O)c4[C@H](O)[C@@H]3[C@@]2(C)CC[C@@H]1OC(C)=O [PYRIPYROPENE A] with Sterol O-acyltransferase 1 (Rattus norvegicus): pIC50 is 6.77

# CCCCC/C=C\C/C=C\CCCCCCCC(=O)O [LINOLEIC ACID] with Sterol O-acyltransferase 1 (Rattus norvegicus): pIC50 is < 3.00

# CCCCCCCC/C=C\CCCCCCCC(=O)O [OLEIC ACID] with Sterol O-acyltransferase 1 (Rattus norvegicus): pIC50 is < 3.00
